- Experimental system: human HIPK1 (Homo sapiens)
- Construct: Recombinant human HIPK1 (156-555); GST (N); purchased SignalChem H03-11G; host or cells: Sf9 insect cells
- Sequence (Q86Z02 156-555): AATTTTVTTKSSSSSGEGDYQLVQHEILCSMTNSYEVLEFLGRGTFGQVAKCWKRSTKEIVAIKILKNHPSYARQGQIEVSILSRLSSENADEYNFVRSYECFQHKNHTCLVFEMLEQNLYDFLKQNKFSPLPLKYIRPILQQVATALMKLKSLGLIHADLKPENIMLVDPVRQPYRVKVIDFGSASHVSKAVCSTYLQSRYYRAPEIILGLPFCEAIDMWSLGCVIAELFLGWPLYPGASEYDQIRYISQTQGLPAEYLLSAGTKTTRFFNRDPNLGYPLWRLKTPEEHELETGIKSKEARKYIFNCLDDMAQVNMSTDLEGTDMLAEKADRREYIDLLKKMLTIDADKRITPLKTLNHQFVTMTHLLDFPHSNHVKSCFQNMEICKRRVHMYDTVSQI
- Protocol details: HIPK1 enzyme assay (ADP-Glo)
- Format: biochemical
- Condition details: ADP-Glo, ATP 5 μM; read-out: HIPK1 IC50
pIC50: −log10 of the molar value.
Listing of recorded pIC50 by entry.

Query :: Enter recorded pIC50 with human HIPK1 (Homo sapiens) for CN(C1=N/C(=C\c2ccc3c(c2)OCCO3)C(=O)N1)c1ccc2ncsc2c1 here.
Result :: < 5.00

----------
- Experimental system: human DYRK1A (Homo sapiens, UniProt Q13627)
- Construct: Recombinant full-length DYRK1A (expressed in E. Coli cells with an N-terminal GST tag); GST (N); purchased SignalChem D09-10G; host or cells: E. coli
- Protocol details: DYRK1A enzyme assay (ADP-Glo)
- Assay type: biochemical
- Condition details: ADP-Glo, ATP 60 μM; read-out: DYRK1A IC50
- Description: The ability of compounds to inhibit human DYRK1A kinase activities was determined using a commercially available ADP-Glo™ Kinase Assay kit (Promega, Cat #V9102) according to the manufacturer's protocol. Recombinant full-length DYRK1A (expressed in E. Coli cells with an N-terminal GST tag) was purchased from SignalChem (Cat #D09-10G). The DYRK substrate peptide (DYRKtide, sequence: […]) was purchased from SignalChem (Cat #D96-58). […] The light generated is measured using a luminometer. […]
pIC50: −log10 of the molar value.
Measured metric: pIC50

[
  {
    "Structure string": "COc1ccc(N(C)C2=N/C(=C\\c3ccc4ncsc4c3)C(=O)N2)cc1",
    "Result": "6.00 to 7.00"
  },
  {
    "Structure string": "CN(C1=N/C(=C\\c2ccc3[nH]cnc3c2)C(=O)N1)c1ccccc1",
    "Result": "5.00 to 6.00"
  }
]

Query :: Let me know recorded pIC50 for CN(C1=N/C(=C\c2ccc3c(c2)OCO3)C(=O)N1)c1ccc2ncsc2c1 , thanks.
Result :: < 5.00

Query :: Let me know recorded pIC50 for O=C1NC(NC23CC4CC(CC(C4)C2)C3)=N/C1=C\c1ccc2scnc2c1 , thanks.
Result :: 5.00 to 6.00

Query :: Let me know recorded pIC50 for O=C1NC(Nc2ccc3ncsc3c2)=N/C1=C\c1ccc2[nH]ccc2c1 , thanks.
Result :: < 5.00

Query :: Let me know recorded pIC50 for O=C1NC(Nc2ccccc2)=N/C1=C\c1ccc2nn[nH]c2c1 , thanks.
Result :: > 7.00

Query :: Let me know recorded pIC50 for O=C1NC(N(Cc2ccccc2)c2ccc3ncsc3c2)=N/C1=C\c1ccc2ncsc2c1 , thanks.
Result :: 6.00 to 7.00

Query :: Let me know recorded pIC50 for O=C1NC(Nc2ccc3ncsc3c2)=N/C1=C\c1cncs1 , thanks.
Result :: 6.00 to 7.00

Query :: Let me know recorded pIC50 for CC(C)Nc1nc2ccc(NC3=N/C(=C\c4ccc5ncsc5c4)C(=O)N3)cc2s1 , thanks.
Result :: 6.00 to 7.00
